- Target Entity: TRPV3-Y564A (Mus musculus, UniProt Q8K424, Y564A)
- Sequence (Q8K424 1-791 Y564A): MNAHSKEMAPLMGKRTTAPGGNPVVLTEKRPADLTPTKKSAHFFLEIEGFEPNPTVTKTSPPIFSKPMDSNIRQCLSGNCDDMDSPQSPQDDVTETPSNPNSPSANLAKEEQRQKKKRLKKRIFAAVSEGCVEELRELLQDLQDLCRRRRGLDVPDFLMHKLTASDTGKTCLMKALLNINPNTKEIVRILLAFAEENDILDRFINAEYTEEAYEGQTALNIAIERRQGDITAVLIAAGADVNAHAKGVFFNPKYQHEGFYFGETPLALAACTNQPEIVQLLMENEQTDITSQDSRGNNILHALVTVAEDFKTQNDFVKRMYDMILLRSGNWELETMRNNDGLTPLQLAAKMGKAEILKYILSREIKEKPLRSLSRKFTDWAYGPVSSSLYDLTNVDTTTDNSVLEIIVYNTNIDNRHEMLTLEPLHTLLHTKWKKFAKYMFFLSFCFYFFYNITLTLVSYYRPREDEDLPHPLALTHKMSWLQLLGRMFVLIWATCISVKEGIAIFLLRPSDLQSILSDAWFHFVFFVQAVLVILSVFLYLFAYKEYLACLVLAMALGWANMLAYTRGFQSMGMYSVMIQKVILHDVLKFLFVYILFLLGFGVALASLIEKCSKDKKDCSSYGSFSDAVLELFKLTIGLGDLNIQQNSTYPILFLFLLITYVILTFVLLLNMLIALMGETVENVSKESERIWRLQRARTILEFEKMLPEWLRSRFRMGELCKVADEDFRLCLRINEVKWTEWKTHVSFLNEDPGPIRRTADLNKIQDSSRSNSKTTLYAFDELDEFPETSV
- Method Description: Fura-2 ratiometric Ca2+ uptake, inhibition of 2-APB-evoked response
- Condition Label: 200 µM 2-APB, n = 4, negative control mutant
Reported Endpoint: pIC50
FYI, pIC50 means -log10 of a concentration in mol per litre.

For the compound CCCCOc1ccc(C(=O)CCN2CCCCC2)cc1 [dyclonine] , give its reported pIC50. 4.50
